Target: pro-protein convertase of the subtype nine binding to recombinant LDLR-AB domain (Homo sapiens)
Sequence (Q8NBP7 153-692): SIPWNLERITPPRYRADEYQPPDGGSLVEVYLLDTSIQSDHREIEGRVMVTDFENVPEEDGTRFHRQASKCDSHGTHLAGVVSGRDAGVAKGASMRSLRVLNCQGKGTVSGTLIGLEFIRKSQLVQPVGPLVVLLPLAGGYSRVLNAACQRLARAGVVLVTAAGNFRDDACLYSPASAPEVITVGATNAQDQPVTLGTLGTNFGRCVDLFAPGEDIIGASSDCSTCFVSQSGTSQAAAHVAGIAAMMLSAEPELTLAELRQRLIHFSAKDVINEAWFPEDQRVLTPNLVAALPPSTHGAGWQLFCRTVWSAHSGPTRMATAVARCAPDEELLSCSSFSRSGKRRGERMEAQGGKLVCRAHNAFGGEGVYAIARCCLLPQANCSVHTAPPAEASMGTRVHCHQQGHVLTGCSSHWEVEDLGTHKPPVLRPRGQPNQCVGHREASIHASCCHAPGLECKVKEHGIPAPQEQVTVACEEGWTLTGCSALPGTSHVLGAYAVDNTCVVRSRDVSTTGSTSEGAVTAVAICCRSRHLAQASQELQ
Sequence (Q8NBP7 31-152 partner limits assumed): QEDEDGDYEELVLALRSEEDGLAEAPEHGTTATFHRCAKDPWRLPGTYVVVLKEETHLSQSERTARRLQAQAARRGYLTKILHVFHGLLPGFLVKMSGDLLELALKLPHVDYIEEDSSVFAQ
Assay: in vitro quantitative solid phase binding assay (ELISA) of the subtype nine pro-protein convertase to immobilized LDLR
Details: Concentration 10 μM
Experimental: The in vitro binding assay described hereinafter is a quantitative solid phase binding assay for determining the efficacy of the compounds. […] The amount of bound gene is measured by binding it with biotinylated anti-His-tag monoclonal antibody, followed by binding with horseradish peroxidase conjugated streptavidin substrate. The color was quantified by ELISA reader at […] which reflects the relative amount of “the gene” that binds to LDLR in presence and absence of the inhibitor. […]
assay metric: inhibition at 10 µM (%)

>>> value_measured("O=C(COc1ccc(C(Cc2ccccc2)=NOCc2ccc(OC(F)(F)F)cc2)cc1)NCC1CCOCC1")
33
>>> value_measured("Cc1cc(C(Cc2ccccc2)=NOCc2ccc(C(F)(F)F)cc2)ccc1OCC(=O)NCC1CCOCC1")
35
>>> value_measured("O=C(COc1ccc(C(Cc2ccncc2)=NOCc2ccc(C(F)(F)F)cc2)cc1)NCC1CCOCC1")
32
>>> value_measured("O=C(COc1ccc(C(Cc2ccccc2)=NOCc2cccc(C(F)(F)F)c2)cc1)NCC1CCOCC1")
55
>>> value_measured("CCC(=NOCc1ccc(F)cc1)c1ccc(OCC(=O)NCC2CCOCC2)nc1")
15
>>> value_measured("O=C(COc1ccc(C(Cc2ccccc2)=NOCc2ccc(C(F)(F)F)cc2)cc1)NCC1CCOCC1")
49
>>> value_measured("CCC(=NOCc1ccc(S(C)(=O)=O)cc1)c1ccc(OCC(=O)NCC2CCOCC2)cc1")
9
>>> value_measured("CCC(=NOCc1ccccc1)c1ccc(OCC(=O)NCC2CCOCC2)nc1")
28
>>> value_measured("Cc1cc(C(Cc2ccccc2)=NOCc2ccc(F)cc2)ccc1OCC(=O)NCC1CCOCC1")
13
>>> value_measured("CCC(=NOCc1ccc(C(F)(F)F)cc1)c1ccc(OCC(=O)NCC2CCOCC2)cc1")
35
>>> value_measured("O=C(COc1ccc2c(c1)CCCC2=NOCc1ccc(Cl)cc1)NCC1CCOCC1")
7
>>> value_measured("CC(=NOCc1ccc(C(F)(F)F)cc1)c1ccc(NCC(=O)NCC2CCOCC2)nc1")
39
>>> value_measured("Cc1ccc(CON=C(Cc2ccccc2)c2ccc(OCC(=O)NCC3CCOCC3)cc2)cc1")
10
>>> value_measured("O=C(COc1ccc(C(CN2CCOCC2)=NOCc2ccc(C(F)(F)F)cc2)cc1)NCC1CCOCC1")
31
>>> value_measured("O=C(COc1ccc(C(Cc2ccccc2)=NOCc2ccccn2)cc1)NCC1CCOCC1")
15
>>> value_measured("COc1ccc(CON=C(Cc2ccccc2)c2ccc(OCC(=O)NCC3CCOCC3)c(C)c2)cc1")
20
>>> value_measured("CC(=NOCc1ccc(C(F)(F)F)cc1)c1ccc(OCC(=O)NCC2CCOCC2)nc1")
41

Taken from patent US8822414B2.
